procedure-text: in situ brain/choroid plexus perfusion: CNS uptake of [^3H]-arginine, [^3H]-ADMA and [^14C]-sucrose (multiple-time and single-time uptake analysis)
assay-conditions: male, BALB/c, mouse, cerebellum, [3H] ADMA and [14C] Sucrose uptake, 2.5 mins, 5ml/min; mean
Structures can show the parent of a compound that is named as a salt.
value-type: Kp at […]

Supply Kp at […] value. Item: CN(C)C(N)=NCCC[C@H](N)C(=O)O [ADMA, N^G,N^G-dimethylarginine dihydrochloride]
0.112

====

procedure-text: in situ brain/choroid plexus perfusion: CNS uptake of [^3H]-arginine, [^3H]-ADMA and [^14C]-sucrose (multiple-time and single-time uptake analysis)
assay-conditions: male, BALB/c, mouse, pineal gland, [3H] ADMA and [14C] Sucrose uptake, 2.5 mins, 5ml/min; mean
Where a name gives a salt, the structure may show the parent alone.
value-type: Kp at […], 62.5 nM
The answer should be a number; do not append a unit.

Supply Kp at […], 62.5 nM value. Item: CN(C)C(N)=NCCC[C@H](N)C(=O)O [ADMA, N^G,N^G-dimethylarginine dihydrochloride]
0.527

====

procedure-text: in situ brain/choroid plexus perfusion: CNS uptake of [^3H]-arginine, [^3H]-ADMA and [^14C]-sucrose (multiple-time and single-time uptake analysis)
assay-conditions: male, BALB/c, mouse, in vivo, caudate nucleus: [14C] Sucrose, 30 mins, Balb/c ♂, 5ml/min; mean
value-type: Kp at 30 min
The answer should be a number; do not append a unit.

Supply Kp at 30 min value. Item: OC[C@H]1O[C@@](CO)(O[C@H]2O[C@H](CO)[C@@H](O)[C@H](O)[C@H]2O)[C@@H](O)[C@@H]1O [[^14C]-sucrose, reference compound]
0.0778

====

Tested on: [3H]-ADMA transport across the blood-brain and blood-CSF barriers
procedure-text: self-inhibition, in situ perfusion: [^3H]-ADMA with 100 μM unlabelled ADMA
Format: in vivo, mouse
assay-conditions: male, Balb/c, mouse, cerebellum, other: in situ brain perfusion, with unlabelled ADMA 100 µM, [3H] ADMA + [14C] Sucrose + 100uM un-labelled ADMA, 10 mins, Balb/c ♂, 5ml/min; mean; read-out: uptake into cerebellum
Protocol: Self-inhibition experiments were also performed. […] Cross-competition experiments were also performed. The percentage change in the RTissue uptake values achieved in the absence or presence of an unlabelled inhibitor can be calculated by means of Eq 4. %change=RTissue−RInhibition/RTissue×100 Eq 4 We define RInhibition as the RTissue uptake in the presence of an inhibitor in the artificial plasma. […]
Structures can show the parent of a compound that is named as a salt.
value-type: Kp at 10 min, 62.5 nM
The answer should be a number; do not append a unit.

Supply Kp at 10 min, 62.5 nM value. Item: CN(C)C(N)=NCCC[C@H](N)C(=O)O [ADMA, N^G,N^G-dimethylarginine dihydrochloride]
0.121

====

procedure-text: in situ brain/choroid plexus perfusion: CNS uptake of [^3H]-arginine, [^3H]-ADMA and [^14C]-sucrose (multiple-time and single-time uptake analysis)
assay-conditions: male, BALB/c, mouse, in vivo, tissue or CSF to plasma ratio (mean), pons; 20 mins; uncorrected; given as fraction
value-type: Kp at 20 min
The answer should be a number; do not append a unit.

Supply Kp at 20 min value. Item: OC[C@H]1O[C@@](CO)(O[C@H]2O[C@H](CO)[C@@H](O)[C@H](O)[C@H]2O)[C@@H](O)[C@@H]1O [[^14C]-sucrose, reference compound]
0.118

====

procedure-text: capillary depletion analysis after in situ brain perfusion
Format: in vivo, mouse
assay-conditions: male, BALB/c, mouse, capillary depletion supernatant (brain parenchyma), [3H] ADMA and [14C] Sucrose uptake, supernatant, 2.5 mins, 5ml/min; individual mouse
Structures can show the parent of a compound that is named as a salt.
value-type: Kp at […]
The answer should be a number; do not append a unit.

Supply Kp at […] value. Item: CN(C)C(N)=NCCC[C@H](N)C(=O)O [ADMA, N^G,N^G-dimethylarginine dihydrochloride]
0.0737

====

procedure-text: cross-inhibition, in situ perfusion: [^3H]-arginine with 0.5–500 μM unlabelled ADMA
Assay type: in vivo, mouse
assay-conditions: male, Balb/c, mouse, caudate nucleus, other: in situ brain perfusion, with unlabelled ADMA 10 µM, Arginine / Sucrose uptake, caudate nucleus, mean, [3H] Arginine + [14C] Sucrose + 10 uM ADMA, 10 mins, Balb/c ♂, 5ml/min; mean
value-type: Kp at 10 min
The answer should be a number; do not append a unit.

Supply Kp at 10 min value. Item: OC[C@H]1O[C@@](CO)(O[C@H]2O[C@H](CO)[C@@H](O)[C@H](O)[C@H]2O)[C@@H](O)[C@@H]1O [[^14C]-sucrose, reference compound]
0.0357

====

procedure-text: in situ brain/choroid plexus perfusion: CNS uptake of [^3H]-arginine, [^3H]-ADMA and [^14C]-sucrose (multiple-time and single-time uptake analysis)
assay-conditions: male, BALB/c, mouse, pineal gland, Difference (ADMA minus Sucrose), CONTROL, 10 mins, 5ml/min; mean
Structures can show the parent of a compound that is named as a salt.
value-type: Kp at 10 min
The answer should be a number; do not append a unit.

Supply Kp at 10 min value. Item: CN(C)C(N)=NCCC[C@H](N)C(=O)O [ADMA, N^G,N^G-dimethylarginine dihydrochloride]
1.94

====

procedure-text: cross-inhibition, in situ perfusion: [^3H]-arginine with 0.5–500 μM unlabelled ADMA
Type: in vivo, mouse
assay-conditions: male, BALB/c, mouse, thalamus, other: in situ brain perfusion with artificial plasma, with unlabelled ADMA 500 µM, [3H] Arginine and [14C] Sucrose uptake, thalamus, + 500µM un-labelled ADMA, 10 mins, Balb/c ♂, 5ml/min; mean
Experimental: Self-inhibition experiments were also performed. […] Cross-competition experiments were also performed. The percentage change in the RTissue uptake values achieved in the absence or presence of an unlabelled inhibitor can be calculated by means of Eq 4. %change=RTissue−RInhibition/RTissue×100 Eq 4 We define RInhibition as the RTissue uptake in the presence of an inhibitor in the artificial plasma. […]
value-type: Kp at 10 min
The answer should be a number; do not append a unit.

Supply Kp at 10 min value. Item: OC[C@H]1O[C@@](CO)(O[C@H]2O[C@H](CO)[C@@H](O)[C@H](O)[C@H]2O)[C@@H](O)[C@@H]1O [[^14C]-sucrose, reference compound]
0.034

====

procedure-text: in situ brain/choroid plexus perfusion: CNS uptake of [^3H]-arginine, [^3H]-ADMA and [^14C]-sucrose (multiple-time and single-time uptake analysis)
assay-conditions: male, BALB/c, mouse, in vivo, pineal gland: [14C] Sucrose, 30 mins, Balb/c ♂, 5ml/min; mean
value-type: Kp at 30 min

Supply Kp at 30 min value. Item: OC[C@H]1O[C@@](CO)(O[C@H]2O[C@H](CO)[C@@H](O)[C@H](O)[C@H]2O)[C@@H](O)[C@@H]1O [[^14C]-sucrose, reference compound]
1.05

====

Test system: [3H]-ADMA transport across the blood-brain and blood-CSF barriers
procedure-text: self-inhibition, in situ perfusion: [^3H]-ADMA with 100 μM unlabelled ADMA
Assay type: in vivo, mouse
assay-conditions: male, Balb/c, mouse, cerebellum, other: in situ brain perfusion, with unlabelled ADMA 100 µM, [3H] ADMA + [14C] Sucrose + 100uM un-labelled ADMA, 10 mins, Balb/c ♂, 5ml/min; individual mice; read-out: uptake into cerebellum
Counter-ions that a name gives are not always drawn.
value-type: Kp at 10 min, 62.5 nM

Report Kp at 10 min, 62.5 nM under test system [3H]-ADMA transport across the blood-brain and blood-CSF barriers for CN(C)C(N)=NCCC[C@H](N)C(=O)O [ADMA, N^G,N^G-dimethylarginine dihydrochloride] .
0.09

====

procedure-text: capillary depletion analysis after in situ brain perfusion
Assay type: in vivo, mouse
assay-conditions: male, BALB/c, mouse, whole-brain homogenate (capillary depletion), [3H] ADMA and [14C] Sucrose uptake, homogenate, 20 mins, 5ml/min; mean
Counter-ions that a name gives are not always drawn.
value-type: Kp at 20 min, 62.5 nM
The answer should be a number; do not append a unit.

Supply Kp at 20 min, 62.5 nM value. Item: CN(C)C(N)=NCCC[C@H](N)C(=O)O [ADMA, N^G,N^G-dimethylarginine dihydrochloride]
0.234

====

procedure-text: in situ brain/choroid plexus perfusion: CNS uptake of [^3H]-arginine, [^3H]-ADMA and [^14C]-sucrose (multiple-time and single-time uptake analysis)
assay-conditions: male, BALB/c, mouse, CSF
value-type: Kp at 30 min, […]
The answer should be a number; do not append a unit.

Supply Kp at 30 min, […] value. Item: N=C(N)NCCC[C@H](N)C(=O)O [[^3H]-arginine, reference compound]
1.2

====

procedure-text: in situ brain/choroid plexus perfusion: CNS uptake of [^3H]-arginine, [^3H]-ADMA and [^14C]-sucrose (multiple-time and single-time uptake analysis)
assay-conditions: male, BALB/c, mouse, pons, [3H] ADMA and [14C] Sucrose uptake, 20 mins, 5ml/min; mean
Where a name gives a salt, the structure may show the parent alone.
value-type: Kp at 20 min, 62.5 nM
The answer should be a number; do not append a unit.

Supply Kp at 20 min, 62.5 nM value. Item: CN(C)C(N)=NCCC[C@H](N)C(=O)O [ADMA, N^G,N^G-dimethylarginine dihydrochloride]
0.347
